Values were extracted from PubChem BioAssay (NCI).

The following molecules are shown together with reported growth values.
- Test system: M14 melanoma
- Method Notes: NCI-60 one-dose screen, 48 h (100 = growth as untreated, 0 = no growth, -100 = all killed)
- Condition Summary: 10 µM unless noted
The panel holds about 83,000 compounds, 20% with a hit somewhere; the sample as a whole holds those more often.
# value in %; strip the unit string

COc1ccc(Cn2c(SC)nc(=O)n(Cc3ccc(Cl)cc3)c2=O)cc1 ... 98.6
O=C(CN1CCN(c2cc3c(cc2F)c(=O)c(C(=O)O)cn3C2CC2)CC1)Nc1ccc(C(=O)/C=C/c2ccc(Cl)cc2)cc1 ... 96.3

Continue with the molecule presented below.
Identify growth associated with the molecule Nc1nn2cc(-c3ccc(Cl)s3)nc2c2ccccc12
97
